Experiment Summary: Solubility of ACF in different media
Type: physicochemical
Conditions Used: oil or lipid, thermodynamic from solid, citronellol oil, room temperature
Outcome Measure: solubility at 24 h (µg/mL)
Please give a number only; it is taken to be in µg/mL.

GET /value?item= O=C(O)COC(=O)Cc1ccccc1Nc1c(Cl)cccc1Cl &field=solubility at 24 h returns 5260

* * *

Experiment Summary: Solubility of ACF in different media
Type: physicochemical
Conditions Used: thermodynamic from solid, Tween 80, room temperature
Outcome Measure: solubility at 24 h (mg/mL)
Please give a number only; it is taken to be in mg/mL.

GET /value?item= O=C(O)COC(=O)Cc1ccccc1Nc1c(Cl)cccc1Cl &field=solubility at 24 h returns 62.6

* * *

Experiment Summary: Solubility of ACF in different media
Type: physicochemical
Conditions Used: organic solvent or mixture, thermodynamic from solid, Transcutol HP, room temperature
Procedure: The mixture was shaken using a vortex mixer (Heidolph Instrument, D-91126 Schwabach, type RZR 2021, Bavaria, Germany) for 15 min, followed by storage at room temperature. After 24 h, the resulting solution was subjected to centrifugation at 3000 rpm for 5 min to separate the clear supernatant. A suitable sample solution was collected and diluted with absolute methanol. […]
Outcome Measure: solubility at 24 h (mg/mL)
Please give a number only; it is taken to be in mg/mL.

GET /value?item= O=C(O)COC(=O)Cc1ccccc1Nc1c(Cl)cccc1Cl &field=solubility at 24 h returns 300

* * *

Experiment Summary: Solubility of ACF in different media
Type: physicochemical
Conditions Used: thermodynamic from solid, water, room temperature
Outcome Measure: solubility at 24 h (µg/mL)
Please give a number only; it is taken to be in µg/mL.

GET /value?item= O=C(O)COC(=O)Cc1ccccc1Nc1c(Cl)cccc1Cl &field=solubility at 24 h returns 71
